- METHOD_SUMMARY: self-splicing fitness, log relative to wild type (ln ratio); higher = more splicing; Tetrahymena group I intron in knt gene, E. coli kanamycin selection, DiMSum; sequences stand for … in CUCUCU…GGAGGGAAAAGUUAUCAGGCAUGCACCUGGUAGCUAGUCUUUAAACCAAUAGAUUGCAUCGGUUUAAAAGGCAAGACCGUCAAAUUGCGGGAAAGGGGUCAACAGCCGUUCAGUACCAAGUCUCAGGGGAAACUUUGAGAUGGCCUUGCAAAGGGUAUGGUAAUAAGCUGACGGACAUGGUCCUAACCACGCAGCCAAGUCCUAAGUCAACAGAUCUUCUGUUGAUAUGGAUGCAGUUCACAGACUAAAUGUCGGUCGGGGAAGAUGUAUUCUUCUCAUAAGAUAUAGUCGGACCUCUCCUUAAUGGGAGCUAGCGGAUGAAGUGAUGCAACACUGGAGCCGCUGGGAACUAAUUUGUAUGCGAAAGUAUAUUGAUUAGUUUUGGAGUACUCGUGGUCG;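 further: selection with 25 µg/mL kanamycin versus none on LB agar overnight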
- CONDITIONS_USED: 30 °C
Provide the reported self-splicing fitness (ln) of each item.

Data point: `UAGCAGCAAUAUUACGAGUC` ; self-splicing fitness (ln) = -4.81

self-splicing fitness (ln) for `UCUCAGCAAUAUUACGAGGA` is -3.23

Lookup result for `UGCCAGCAAUAUUACGCCCA` ; measured self-splicing fitness (ln): 0.23

For `GAAUAGCAAUAUUACGUCUC` the sequence record lists self-splicing fitness (ln) as -0.581

Value of measured self-splicing fitness (ln) for the entry `ACCAAGCAAUAUUACGUACA` : -1.46

Entry under test: `CCUUAGCAAUAUUACGACAC` . Its self-splicing fitness (ln) was -2

Lab note: `CUUUAGCAAUAUUACGUAUA` gave self-splicing fitness (ln) of -3.57

Data point: `AAUUAGCAAUAUUACGGCCG` ; self-splicing fitness (ln) = -0.532

Reported self-splicing fitness (ln) ( `CCACAGCAAUAUUACGAAAA` ) = -3.8

The reported self-splicing fitness (ln) of the sequence `CGUAAGCAAUAUUACGAUCG` was -1.03

Query `GUUGAGCAAUAUUACGGUCA` yields self-splicing fitness (ln) of -1.81

Quick note, self-splicing fitness (ln) for `UCAUAGCAAUAUUACGCAAC` landed at -3.77

Just so you know, measured self-splicing fitness (ln) for `GUAGAGCAAUAUUACGUCCU` came out at -1.1

// self-splicing fitness (ln) value for `GACUAGCAAUAUUACGCUAG` : -2.44

For this sequence ( `GCAGAGCAAUAUUACGCAGU` ), measured self-splicing fitness (ln) is -3.61

`AAUCAGCAAUAUUACGAUCG` has a reported self-splicing fitness (ln) of -0.0405

Please fill in: self-splicing fitness (ln) reported for `UCACAGCAAUAUUACGUCUA` = -1.25

sequence `AGAGAGCAAUAUUACGAUCU` , self-splicing fitness (ln) observed: -4.39

For this sequence ( `AGAAAGCAAUAUUACGGUAU` ), measured self-splicing fitness (ln) is -2.66

Field self-splicing fitness (ln) (entry `AGAAAGCAAUAUUACGAGCG` ) reads -1.21

Briefly, self-splicing fitness (ln) measured for `CCAGAGCAAUAUUACGGUAA` : -2.75

`UAGAAGCAAUAUUACGGUAG` yielded self-splicing fitness (ln) of -1.88

The value of self-splicing fitness (ln) measured for the sequence `CUUCAGCAAUAUUACGUUAG` turned out to be -1.66

Consider `AUGGAGCAAUAUUACGUAUG` . Its measured self-splicing fitness (ln) is -4.28

Per the records, this sequence ( `GGUCAGCAAUAUUACGCCCU` ) has self-splicing fitness (ln) equal to -0.704

Form field self-splicing fitness (ln), entry `GCGUAGCAAUAUUACGAGUA` : -1.64

Record summary for `UGAAAGCAAUAUUACGGCGA` : reported self-splicing fitness (ln) = -0.22

The sequence listed as `AUCGAGCAAUAUUACGCGGC` has a reported self-splicing fitness (ln) of -2.86

Data point: `GCAAAGCAAUAUUACGGUGA` ; self-splicing fitness (ln) = -0.987

Record `AAGGAGCAAUAUUACGCGCA` . Reported self-splicing fitness (ln): -1.82

`GAGAAGCAAUAUUACGUGUA` has a reported self-splicing fitness (ln) of -2.8

Entry under test: `UCCGAGCAAUAUUACGGGGA` . Its self-splicing fitness (ln) was -1.93

For this sequence ( `CGUUAGCAAUAUUACGAUCU` ), measured self-splicing fitness (ln) is -1.14

self-splicing fitness (ln) reported for this sequence `AGAGAGCAAUAUUACGCGCC` : -2.58

self-splicing fitness (ln) reported for this sequence `GCACAGCAAUAUUACGAGUU` : -1.81

The sequence `CUGUAGCAAUAUUACGGCAG` showed self-splicing fitness (ln) equal to -3.85

Entry under test: `AUCAAGCAAUAUUACGUGAC` . Its self-splicing fitness (ln) was -2.04

So, `GUUAAGCAAUAUUACGUUGA` ? Its self-splicing fitness (ln) was -3.87

Form: sequence = `AGUAAGCAAUAUUACGCUUU` ; self-splicing fitness (ln) = -3.63

Summary for this sequence, `CGCCAGCAAUAUUACGAGUU` : self-splicing fitness (ln) is -3.19

Reported self-splicing fitness (ln) for `GUAAAGCAAUAUUACGGCAU` was -0.176

// sample `GUGCAGCAAUAUUACGCUAU` , its self-splicing fitness (ln) was -2.36

self-splicing fitness (ln) measured on `UAUCAGCAAUAUUACGGGCU` = -2.72

Input `GGUGAGCAAUAUUACGAAUG` . Output self-splicing fitness (ln): -3.14

Per the record, `GUUGAGCAAUAUUACGCGUA` has self-splicing fitness (ln) of -3.48

// field: self-splicing fitness (ln); key: `GAGAAGCAAUAUUACGGAAU` ; value = -3.69

sequence `GGCUAGCAAUAUUACGACAU` , self-splicing fitness (ln) observed: -0.413

The sequence listed as `UAAUAGCAAUAUUACGUAUG` has a reported self-splicing fitness (ln) of -1.88

self-splicing fitness (ln) reported for this sequence `GGUUAGCAAUAUUACGCUUA` : -1.58

// `GCAAAGCAAUAUUACGUCAU` : self-splicing fitness (ln) value = -2.25

Field self-splicing fitness (ln) (entry `AUCGAGCAAUAUUACGGUUG` ) reads -3.96

Notebook: `GUAGAGCAAUAUUACGACGA` , self-splicing fitness (ln) read as -1.85

GET /value?item= `GCAUAGCAAUAUUACGAACU` &field=self-splicing fitness (ln) returns -1.11

Consider `AUAUAGCAAUAUUACGAAUG` . Its measured self-splicing fitness (ln) is -1.77

In plain terms, `UUCAAGCAAUAUUACGUCGC` has a documented self-splicing fitness (ln) of -4.02

Record `GAGAAGCAAUAUUACGCUGC` . Reported self-splicing fitness (ln): -2.78

# sequence `GUCUAGCAAUAUUACGGAAG` ; its self-splicing fitness (ln) = -0.159

Entry under test: `AGUCAGCAAUAUUACGUGUC` . Its self-splicing fitness (ln) was -2.18

Record `UCUUAGCAAUAUUACGUGAC` , field self-splicing fitness (ln): -2.81

In plain terms, `GGGAAGCAAUAUUACGUGAA` has a documented self-splicing fitness (ln) of -2.39

For reference, reported self-splicing fitness (ln) for `CAAUAGCAAUAUUACGGCUG` stands at -0.286

Noted for `CGCAAGCAAUAUUACGACGG` : its self-splicing fitness (ln) reads 0.00768

Form field self-splicing fitness (ln), entry `AGCUAGCAAUAUUACGCGAC` : -3.48

In plain terms, `UGGUAGCAAUAUUACGACUA` has a documented self-splicing fitness (ln) of -0.227

self-splicing fitness (ln) in this record for `CGACAGCAAUAUUACGAAGA` : -2.29

Summary for this sequence, `UCAUAGCAAUAUUACGCUAG` : self-splicing fitness (ln) is -3.15

Value of self-splicing fitness (ln) reported for the sequence `UGACAGCAAUAUUACGUCAU` is -3.99
